src = patent US9850283B2

Known IC50 of a selection of compounds
# target-entity: Human PD-L1/PD-1 (Homo sapiens, UniProt Q9NZQ7)
# Construct: made in house; host or cells: HEK293T
# Sequence (Q9NZQ7 with tags, fused parts or gaps): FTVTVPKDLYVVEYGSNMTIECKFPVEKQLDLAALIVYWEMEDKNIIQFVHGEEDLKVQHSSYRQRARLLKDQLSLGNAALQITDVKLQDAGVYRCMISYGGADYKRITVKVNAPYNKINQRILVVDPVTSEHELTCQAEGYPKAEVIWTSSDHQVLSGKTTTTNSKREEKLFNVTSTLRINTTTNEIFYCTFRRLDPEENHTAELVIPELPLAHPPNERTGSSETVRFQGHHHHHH
# test-details: HTRF PD-1-Ig/PD-L1-His binding assay (human PD-L1)
# cond: cluster symbol; read-out: HTRF IC50 cluster
Positions of bridges follow the written chain, without caps; N, C: chain ends. Non-standard residues stand in square brackets, D forms with d. Residues, ends and D or L forms follow the SMILES beside them. ξ: configuration not given here. Phe(3-OMe) = COc1cccc(C[C@H](N)C(=O)O)c1; NMeNle = CCCC[C@H](NC)C(=O)O; NMeA = CN[C@@H](C)C(=O)O; ξC = NC(CS)C(=O)O; Sar = CNCC(=O)O
endpoint-label: IC50

[
  {
    "compound": "CCCC[C@H]1C(=O)N(C)[C@@H](C)C(=O)N[C@@H](CCCNC(=N)N)C(=O)NC(C(=O)NCC(N)=O)CSCC(=O)N[C@@H](Cc2ccc(O)cc2)C(=O)N(C)[C@@H](C)C(=O)N[C@@H](CC(N)=O)C(=O)N2CCC[C@H]2C(=O)N[C@@H](Cc2cnc[nH]2)C(=O)N[C@@H](CC(C)C)C(=O)N2CCC[C@H]2C(=O)N[C@@H](Cc2c[nH]c3ccccc23)C(=O)N[C@@H](CO)C(=O)N[C@@H](Cc2c[nH]c3ccccc23)C(=O)N1C (some centres unmarked) [Example 9054] ({CH2CO}-Y[NMeA]NPHLPWSW[NMeNle][NMeA]R[ξC]G-NH2; thioether N-14)",
    "val": "0.385 to 6.74 nM"
  },
  {
    "compound": "CCCC[C@H]1C(=O)N(C)[C@@H](CCCC)C(=O)N[C@@H](CCCNC(=N)N)C(=O)N[C@H](C(=O)NCC(N)=O)CSCC(=O)N[C@@H](Cc2ccccc2)C(=O)N(C)[C@@H](C)C(=O)N[C@@H](CC(N)=O)C(=O)N2CCC[C@H]2C(=O)N[C@@H](Cc2cnc[nH]2)C(=O)N[C@@H](CC(C)C)C(=O)N(C)CC(=O)N[C@@H](Cc2cccc(OC)c2)C(=O)N[C@@H](CO)C(=O)N[C@@H](Cc2c[nH]c3ccccc23)C(=O)N1C [Example 1085] ({CH2CO}-F[NMeA]NPHL[Sar][Phe(3-OMe)]SW[NMeNle][NMeNle]RCG-NH2; thioether N-14)",
    "val": "> 30.5 nM"
  }
]

* * *

# target-entity: LK35.2-hPD-L1 cells / PE-labeled PD-1-Ig (Homo sapiens, UniProt Q9NZQ7)
# Construct: expressed in transfected cells; host or cells: LK35.2 mouse B cell line
# Sequence (Q9NZQ7 19-290): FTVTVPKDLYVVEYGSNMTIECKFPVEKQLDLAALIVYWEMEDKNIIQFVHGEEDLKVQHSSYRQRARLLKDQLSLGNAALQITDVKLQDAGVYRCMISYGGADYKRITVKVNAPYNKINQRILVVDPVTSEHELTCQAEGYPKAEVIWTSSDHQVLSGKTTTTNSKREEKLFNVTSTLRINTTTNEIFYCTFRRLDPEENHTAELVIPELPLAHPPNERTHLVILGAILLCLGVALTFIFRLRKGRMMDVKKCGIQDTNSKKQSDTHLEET
# test-details: LK35.2-hPD-L1 cell binding high-content screening assay
# Type: cell-based
# cond: cluster symbol; cell line of CBA not given (LK35.2-hPD-L1 or 293T-hPD-L1); read-out: CBA IC50 cluster
Positions of bridges follow the written chain, without caps; N, C: chain ends. Non-standard residues stand in square brackets, D forms with d. Residues, ends and D or L forms follow the SMILES beside them. ξ: configuration not given here. Phe(2-Cl) = N[C@@H](Cc1ccccc1Cl)C(=O)O; dNMeNle = CCCC[C@@H](NC)C(=O)O; NMeNle = CCCC[C@H](NC)C(=O)O; NMeA = CN[C@@H](C)C(=O)O; dDap = NC[C@@H](N)C(=O)O; Dab = NCC[C@H](N)C(=O)O; ξP = O=C(O)C1CCCN1; Sar = CNCC(=O)O

[
  {
    "compound": "CCCC[C@@H]1C(=O)N(C)[C@H](CCCC)C(=O)N[C@@H](C)C(=O)N[C@@H](C(=O)NCC(N)=O)CSCC(=O)N[C@@H](Cc2ccc(O)cc2)C(=O)N2CCCC2C(=O)N[C@H](CC(=O)O)C(=O)N2CCC[C@H]2C(=O)N[C@H](CN)C(=O)N[C@@H](CCC(=O)O)C(=O)N2CCCC2C(=O)N[C@H](Cc2c[nH]c3ccccc23)C(=O)N[C@@H](CCN)C(=O)N[C@@H](Cc2c[nH]c3ccccc23)C(=O)N1C (stereo partly shown) [Example 1209] ({CH2CO}-Y[ξP][dD]P[dDap]E[ξP][dW][Dab]W[dNMeNle][dNMeNle]A[dC]G-NH2; thioether N-14)",
    "target-entity": "LK35.2-hPD-L1 cells / PE-labeled PD-1-Ig (Homo sapiens, UniProt Q9NZQ7)",
    "IC50": "4.78 to 72.9 nM"
  },
  {
    "compound": "CCCC[C@H]1C(=O)N(C)[C@@H](CCCC)C(=O)N[C@@H](CCCNC(=N)N)C(=O)N[C@@H](C(=O)NCC(N)=O)CSCC(=O)N[C@@H](Cc2cnc[nH]2)C(=O)N(C)[C@@H](C)C(=O)N[C@@H](CC(N)=O)C(=O)N2CCC[C@H]2C(=O)N[C@@H](Cc2cnc[nH]2)C(=O)N[C@@H](CC(C)C)C(=O)N(C)CC(=O)N[C@@H](Cc2c[nH]c3ccccc23)C(=O)N[C@@H](CO)C(=O)N[C@@H](Cc2c[nH]c3ccccc23)C(=O)N1C [Example 1072] ({CH2CO}-H[NMeA]NPHL[Sar]WSW[NMeNle][NMeNle]R[dC]G-NH2; thioether N-14)",
    "target-entity": "LK35.2-hPD-L1 cells / PE-labeled PD-1-Ig (Homo sapiens, UniProt Q9NZQ7)",
    "IC50": "> 74.3 nM"
  },
  {
    "compound": "CCCC[C@H]1C(=O)N(C)[C@@H](CCCC)C(=O)N[C@@H](CCCNC(=N)N)C(=O)N[C@H](C(=O)NCC(N)=O)CSCC(=O)N[C@@H](Cc2ccccc2Cl)C(=O)N(C)[C@@H](C)C(=O)N[C@@H](CC(N)=O)C(=O)N2CCC[C@H]2C(=O)N[C@@H](Cc2cnc[nH]2)C(=O)N[C@@H](CC(C)C)C(=O)N(C)CC(=O)N[C@@H](Cc2c[nH]c3ccccc23)C(=O)N[C@@H](CO)C(=O)N[C@@H](Cc2c[nH]c3ccccc23)C(=O)N1C [Example 1101] ({CH2CO}-[Phe(2-Cl)][NMeA]NPHL[Sar]WSW[NMeNle][NMeNle]RCG-NH2; thioether N-14)",
    "target-entity": "LK35.2-hPD-L1 cells / PE-labeled PD-1-Ig (Homo sapiens, UniProt Q9NZQ7)",
    "IC50": "> 74.3 nM"
  },
  {
    "compound": "CCCC[C@H]1C(=O)N(C)[C@@H](CCCC)C(=O)N[C@@H](CCCNC(=N)N)C(=O)N[C@H](C(=O)NCC(N)=O)CSCC(=O)N[C@@H](Cc2ccccc2)C(=O)N(C)[C@@H](C)C(=O)N[C@@H](CC(N)=O)C(=O)N2CCC[C@H]2C(=O)N[C@@H](CC(N)=O)C(=O)N[C@@H](CC(C)C)C(=O)N(C)CC(=O)N[C@@H](Cc2c[nH]c3ccccc23)C(=O)N[C@@H](CO)C(=O)N[C@@H](Cc2c[nH]c3ccccc23)C(=O)N1C [Example 1063] ({CH2CO}-F[NMeA]NPNL[Sar]WSW[NMeNle][NMeNle]RCG-NH2; thioether N-14)",
    "target-entity": "LK35.2-hPD-L1 cells / PE-labeled PD-1-Ig (Homo sapiens, UniProt Q9NZQ7)",
    "IC50": "> 74.3 nM"
  }
]

* * *

# target-entity: LK35.2-hPD-L1 cells / PE-labeled PD-1-Ig (Homo sapiens, UniProt Q9NZQ7)
# Construct: expressed in transfected cells; host or cells: LK35.2 mouse B cell line
# test-details: LK35.2-hPD-L1 cell binding high-content screening assay
# Format: cell-based
# cond: cluster symbol; cell line of CBA not given (LK35.2-hPD-L1 or 293T-hPD-L1); read-out: CBA IC50 cluster
pIC50: −log10 of the molar value. Positions of bridges follow the written chain, without caps; N, C: chain ends. Non-standard residues stand in square brackets, D forms with d. Residues, ends and D or L forms follow the SMILES beside them. Phe(3,4-(OMe)2) = COc1ccc(C[C@H](N)C(=O)O)cc1OC; Bta = N[C@@H](Cc1csc2ccccc12)C(=O)O; NMeF = CN[C@@H](Cc1ccccc1)C(=O)O; NMeNle = CCCC[C@H](NC)C(=O)O; Pen = CC(C)(S)[C@H](N)C(=O)O; NMeA = CN[C@@H](C)C(=O)O; Sar = CNCC(=O)O
// reported pIC50 for each item listed
endpoint-label: pIC50

[
  {
    "compound": "CCCC[C@H]1C(=O)N(C)CC(=O)N[C@@H](CC(=O)O)C(=O)N[C@@H](C(C)C)C(=O)N(C)[C@@H](Cc2ccccc2)C(=O)N[C@@H](Cc2ccc(O)cc2)C(=O)N(C)CC(=O)N[C@@H](Cc2c[nH]c3ccccc23)C(=O)N[C@@H](Cc2ccc(O)cc2)C(=O)N[C@@H](CC(C)C)C(=O)N[C@H](C(=O)NCC(N)=O)CSCC(=O)N[C@@H](Cc2ccc(OC)c(OC)c2)C(=O)N(C)[C@@H](Cc2ccccc2)C(=O)N1C [Example 3102] ({CH2CO}-[Phe(3,4-(OMe)2)][NMeF][NMeNle][Sar]DV[NMeF]Y[Sar]WYLCG-NH2; thioether N-13)",
    "val": "< 7.13"
  },
  {
    "compound": "CCCC[C@H]1C(=O)N(C)[C@@H](CCCC)C(=O)N[C@@H](CCCNC(=N)N)C(=O)N[C@H](C(=O)NCC(N)=O)CSCC(=O)N[C@@H](Cc2ccc(O)cc2)C(=O)N2CCC[C@H]2C(=O)N[C@@H](CC(N)=O)C(=O)N2CCC[C@H]2C(=O)N[C@@H](Cc2cnc[nH]2)C(=O)N[C@@H](CC(C)C)C(=O)N2CCC[C@H]2C(=O)N[C@@H](Cc2c[nH]c3ccccc23)C(=O)N[C@@H](CO)C(=O)N[C@@H](Cc2c[nH]c3ccccc23)C(=O)N1C [Example 1136] ({CH2CO}-YPNPHLPWSW[NMeNle][NMeNle]RCG-NH2; thioether N-14)",
    "val": "7.14 to 8.32"
  },
  {
    "compound": "CCCC[C@H]1C(=O)N(C)[C@@H](CCCC)C(=O)N[C@@H](CCCNC(=N)N)C(=O)N[C@H](C(=O)NCC(N)=O)C(C)(C)SCC(=O)N[C@@H](Cc2ccccc2)C(=O)N(C)[C@@H](C)C(=O)N[C@@H](CC(N)=O)C(=O)N2CCC[C@H]2C(=O)N[C@@H](Cc2cnc[nH]2)C(=O)N[C@@H](CC(C)C)C(=O)N(C)CC(=O)N[C@@H](Cc2c[nH]c3ccccc23)C(=O)N[C@@H](CO)C(=O)N[C@@H](Cc2c[nH]c3ccccc23)C(=O)N1C [Example 1083] ({CH2CO}-F[NMeA]NPHL[Sar]WSW[NMeNle][NMeNle]R[Pen]G-NH2; thioether N-14)",
    "val": "7.14 to 8.32"
  },
  {
    "compound": "CCCC[C@H]1C(=O)N(C)[C@@H](CCCC)C(=O)N[C@@H](CCCNC(=N)N)C(=O)N[C@H](C(=O)NCC(N)=O)CSCC(=O)N[C@@H](Cc2ccc(O)cc2)C(=O)N(C)[C@@H](C)C(=O)N[C@@H](CC(N)=O)C(=O)N2CCC[C@H]2C(=O)N[C@@H](Cc2cnc[nH]2)C(=O)N[C@@H](CCC(=O)O)C(=O)N2CCC[C@H]2C(=O)N[C@@H](Cc2c[nH]c3ccccc23)C(=O)N[C@@H](CO)C(=O)N[C@@H](Cc2csc3ccccc23)C(=O)N1C [Example 1115] ({CH2CO}-Y[NMeA]NPHEPWS[Bta][NMeNle][NMeNle]RCG-NH2; thioether N-14)",
    "val": "8.33 to 9.80"
  }
]
